experiment: Tmax in Sprague-Dawley rat at 3 mg/kg, po measured upto 24 hrs by LC/MS/MS analysis; assay type: ADME, organism-based; conditions: in vivo
Measured Attribute: Tmax (min)
A number alone suffices; assume min.

What Tmax value was documented for this compound, "Cn1ccc(-c2cncc(CNc3cc(C(=O)Nc4cccc(OC(F)(F)F)c4)ccc3F)c2)n1" ?
45

====

target: Epithelial discoidin domain-containing receptor 1 (Homo sapiens, UniProt Q08345); experiment: Inhibition of FLAG-tagged DDR1 in human HEK293 cells assessed as reduction in collagen-1-induced DDR1 phosphorylation incubated for 18 hrs by ELISA
Sequence (Q08345 whole entry, the tested form may be a part): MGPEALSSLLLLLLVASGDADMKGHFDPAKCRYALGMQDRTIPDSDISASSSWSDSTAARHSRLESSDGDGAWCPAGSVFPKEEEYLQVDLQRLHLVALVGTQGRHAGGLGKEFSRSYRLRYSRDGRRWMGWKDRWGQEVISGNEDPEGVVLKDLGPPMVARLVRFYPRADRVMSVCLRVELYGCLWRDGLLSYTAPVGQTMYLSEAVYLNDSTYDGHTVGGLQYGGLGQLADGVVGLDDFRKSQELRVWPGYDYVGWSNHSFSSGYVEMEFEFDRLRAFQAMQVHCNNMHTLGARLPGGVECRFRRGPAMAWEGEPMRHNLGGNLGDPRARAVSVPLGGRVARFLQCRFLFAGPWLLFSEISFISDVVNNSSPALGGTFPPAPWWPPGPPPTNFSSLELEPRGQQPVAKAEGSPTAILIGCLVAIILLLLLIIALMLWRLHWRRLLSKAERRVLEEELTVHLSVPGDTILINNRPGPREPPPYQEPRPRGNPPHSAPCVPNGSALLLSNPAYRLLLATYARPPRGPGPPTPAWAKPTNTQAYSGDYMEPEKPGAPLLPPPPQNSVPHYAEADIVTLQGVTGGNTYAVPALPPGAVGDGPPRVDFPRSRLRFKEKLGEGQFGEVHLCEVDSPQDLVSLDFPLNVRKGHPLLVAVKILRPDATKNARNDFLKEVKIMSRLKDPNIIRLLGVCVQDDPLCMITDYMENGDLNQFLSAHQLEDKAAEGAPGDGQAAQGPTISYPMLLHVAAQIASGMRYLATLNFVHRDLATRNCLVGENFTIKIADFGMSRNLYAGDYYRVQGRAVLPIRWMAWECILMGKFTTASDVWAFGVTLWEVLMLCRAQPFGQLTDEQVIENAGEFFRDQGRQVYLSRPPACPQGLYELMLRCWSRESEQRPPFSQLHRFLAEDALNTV
Measured Attribute: IC50 (nM)
// units = nM; emit number, no label

Using the record for "Cc1ccc(C(=O)Nc2cccc(C(F)(F)F)c2)cc1Nc1cncc(C(N)=O)c1" , report its IC50.
4.8

====

experiment: Fraction unbound in rat plasma incubated for 4 hrs by LC/MS/MS analysis; format: ADME, cell-free
I'd be grateful if you could share measured fraction unbound at 4 h for these entries.

Report fraction unbound at 4 h for "Cc1ccc(C(=O)Nc2cccc(C(F)(F)F)c2)cc1NCc1cncc(-c2ccc[nH]2)c1" please.
0.001

Fill in: fraction unbound at 4 h of "Cc1ccc(C(=O)Nc2cccc(C(F)(F)F)c2)cc1NCc1cncc(-c2ccn(C)n2)c1" is ___
0.016

Consider the compound shown here: "Cn1ccc(-c2cncc(CNc3cc(C(=O)Nc4cccc(OC(F)(F)F)c4)ccc3F)c2)n1" What is its recorded fraction unbound at 4 h?
0.089

Could you share which fraction unbound at 4 h value was measured for "Cc1ccc(C(=O)Nc2cccc(C(F)(F)F)c2)cc1Nc1cncc(C(N)=O)c1" ?
0.018

====

test: Metabolic stability in rat liver microsomes assessed as […] at 1 uM incubated for 5 mins followed by NADPH addition and measured upto 45 mins by LC/MS/MS analysis; assay type: ADME, Microsome; settings: read-out: CLH
Measured Attribute: CLint scaled at 1 µM (mL/min/kg)
Respond with the bare value in mL/min/kg.

Which CLint scaled at 1 µM reading was recorded for the molecule "Cn1ccc(-c2cncc(CNc3cc(C(=O)Nc4cccc(OC(F)(F)F)c4)ccc3F)c2)n1" ?
43.2

Any idea what CLint scaled at 1 µM was measured for "Cc1ccc(C(=O)Nc2cccc(C(F)(F)F)c2)cc1NCc1cncc(-c2ccc[nH]2)c1" ?
62

If you can, please state the reported CLint scaled at 1 µM value of "Cc1ccc(C(=O)Nc2cccc(C(F)(F)F)c2)cc1Nc1cncc(C(N)=O)c1" .
60

I'd like to know its CLint scaled at 1 µM. The molecule in question is "Cc1ccc(C(=O)Nc2cccc(C(F)(F)F)c2)cc1NCc1cncc(-c2ccn(C)n2)c1"
46

====

Target: Discoidin domain-containing receptor 2 (Homo sapiens, UniProt Q16832)
Sequence (Q16832 whole entry): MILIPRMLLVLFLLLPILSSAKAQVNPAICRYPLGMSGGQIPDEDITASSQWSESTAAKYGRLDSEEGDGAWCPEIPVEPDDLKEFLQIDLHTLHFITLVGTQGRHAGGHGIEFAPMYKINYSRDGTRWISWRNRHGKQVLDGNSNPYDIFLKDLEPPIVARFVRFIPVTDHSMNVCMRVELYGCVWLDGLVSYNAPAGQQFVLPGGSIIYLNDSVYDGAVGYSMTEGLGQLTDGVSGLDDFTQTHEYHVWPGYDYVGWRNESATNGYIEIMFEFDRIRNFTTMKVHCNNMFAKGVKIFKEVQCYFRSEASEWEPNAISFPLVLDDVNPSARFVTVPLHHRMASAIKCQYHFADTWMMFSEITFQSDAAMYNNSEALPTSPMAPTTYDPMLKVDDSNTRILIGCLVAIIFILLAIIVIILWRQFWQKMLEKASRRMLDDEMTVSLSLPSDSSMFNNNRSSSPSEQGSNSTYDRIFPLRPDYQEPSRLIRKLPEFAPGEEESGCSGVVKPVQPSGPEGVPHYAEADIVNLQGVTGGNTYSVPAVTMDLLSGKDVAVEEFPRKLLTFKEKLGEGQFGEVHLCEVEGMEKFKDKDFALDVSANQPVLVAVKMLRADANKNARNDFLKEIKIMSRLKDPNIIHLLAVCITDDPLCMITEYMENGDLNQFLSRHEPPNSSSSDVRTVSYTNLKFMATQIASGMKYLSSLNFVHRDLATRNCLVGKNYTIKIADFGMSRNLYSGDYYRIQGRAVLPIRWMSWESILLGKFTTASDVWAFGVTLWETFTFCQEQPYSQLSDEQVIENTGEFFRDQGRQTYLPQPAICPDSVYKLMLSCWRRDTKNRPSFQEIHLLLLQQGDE
Test: Inhibition of kinase tracer 178 binding to recombinant human His-tagged DDR2 expressed in baculovirus infected Sf9 cells incubated for 1 hr by TR-FRET based LanthaScreen Eu kinase binding assay
Consider the following molecules; for each one, report its pIC50.
In plain terms, pIC50 is the concentration in mol/L turned into minus its base-10 logarithm.

What value of pIC50 has been recorded for this entry: "Cc1ccc(C(=O)Nc2cccc(C(F)(F)F)c2)cc1NCc1cccnc1"
7.97

Find the recorded pIC50 belonging to "COc1cncc(CNc2cc(C(=O)Nc3cccc(C(F)(F)F)c3)ccc2C)c1" and report it.
8.20

If you can, please state the reported pIC50 value of "Cc1ccc(C(=O)Nc2cccc(C(F)(F)F)c2)cc1NCc1cncc(C(N)=O)c1" .
8.32

Any idea what its pIC50 is? The molecule is "Cc1ccc(C(=O)Nc2ccc(C)c(C(F)(F)F)c2)cc1NCc1cncc(-c2ccc[nH]2)c1"
7.36

Item "Cn1ccc(-c2cncc(CNc3cc(C(=O)Nc4cccc(OC(F)(F)F)c4)ccc3F)c2)n1" has what recorded pIC50?
8.13

Quick one: pIC50 of "Cc1ccc(C(=O)Nc2cccc(C(F)(F)F)c2)cc1NCc1cncc(-c2ccn(C)n2)c1" ?
8.34

Tell me the measured pIC50 of "Cc1ccc(C(=O)Nc2cccc(C(F)(F)F)c2)cc1NCc1cncc(-c2ccc[nH]2)c1" , please.
7.96

====

test: Volume of distribution at steady state in Sprague-Dawley rat at 0.5 mg/kg, iv or 3 mg/kg, po measured upto 24 hrs by LC/MS/MS analysis; assay type: ADME, organism-based; conditions: in vivo, read-out: Vdss
Measured Attribute: Vd (L/kg)
Express the result in L/kg but write the number alone.

Tell me the measured Vd of "Cn1ccc(-c2cncc(CNc3cc(C(=O)Nc4cccc(OC(F)(F)F)c4)ccc3F)c2)n1" , please.
4.3

====

test: Half life in Sprague-Dawley rat at 0.5 mg/kg, iv or 3 mg/kg, po measured upto 24 hrs by LC/MS/MS analysis; assay type: ADME, organism-based; settings: in vivo
Measured Attribute: half-life (min)
Write the number in min without appending the unit.

Need half-life of "Cn1ccc(-c2cncc(CNc3cc(C(=O)Nc4cccc(OC(F)(F)F)c4)ccc3F)c2)n1" , thanks.
180
